Molecular target: T1, DegS F220A (E. coli, UniProt P0AEE3 27-355, F220A)
T1 sequence (looked up): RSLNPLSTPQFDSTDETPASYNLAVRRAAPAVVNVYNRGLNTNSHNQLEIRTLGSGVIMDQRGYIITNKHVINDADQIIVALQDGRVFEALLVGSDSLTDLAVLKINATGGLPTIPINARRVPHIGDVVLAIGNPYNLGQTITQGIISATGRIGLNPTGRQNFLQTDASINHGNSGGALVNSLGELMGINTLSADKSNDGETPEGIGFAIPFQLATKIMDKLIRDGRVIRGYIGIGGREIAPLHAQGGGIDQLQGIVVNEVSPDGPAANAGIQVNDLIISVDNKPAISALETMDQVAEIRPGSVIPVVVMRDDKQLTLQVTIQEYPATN
Assay: fluorescence polarisation
Where no end group is shown, it is not given here. fluorescein = fluorescein, a fluorescent label on the peptide N-terminus
Measurement type: pKd
Value format note: pKd is -log10 of concentration (mol/L); just state the number.

Suppose we examine the binder fluorescein-DNRDGNVYYF [fluorescent OMP peptide fluorescein-DNRDGNVYYF] ; what pKd value has been reported?
5.68
